Catalogue of Fold Increase GCase (max response at 1 µg/ml) readings, one per entry.
Target: T1, full-length untagged human GPNMB expressed on cells (human, UniProt Q14956 23-572)
T1 sequence: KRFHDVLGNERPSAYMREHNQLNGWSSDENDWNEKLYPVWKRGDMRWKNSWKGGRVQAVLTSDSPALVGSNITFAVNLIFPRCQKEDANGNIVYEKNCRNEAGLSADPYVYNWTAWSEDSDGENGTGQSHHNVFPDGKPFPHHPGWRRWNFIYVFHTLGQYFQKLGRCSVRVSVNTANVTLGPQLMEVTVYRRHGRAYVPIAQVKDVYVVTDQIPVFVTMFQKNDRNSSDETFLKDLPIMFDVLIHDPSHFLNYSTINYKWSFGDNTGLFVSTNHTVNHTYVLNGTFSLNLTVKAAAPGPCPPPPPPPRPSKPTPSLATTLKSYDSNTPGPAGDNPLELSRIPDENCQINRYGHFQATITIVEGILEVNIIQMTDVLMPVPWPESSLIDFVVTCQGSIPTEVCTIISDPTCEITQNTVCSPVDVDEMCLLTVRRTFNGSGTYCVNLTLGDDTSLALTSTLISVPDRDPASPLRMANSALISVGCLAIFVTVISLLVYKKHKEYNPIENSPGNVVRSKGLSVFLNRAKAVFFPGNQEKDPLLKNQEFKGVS
Assay: cell-based or functional assay
quantity: Fold Increase GCase (max response at 1 µg/ml) (fold)

{"binder": "anti-GPNMB antibody GPN-97 (antibody, V domains shown) VH: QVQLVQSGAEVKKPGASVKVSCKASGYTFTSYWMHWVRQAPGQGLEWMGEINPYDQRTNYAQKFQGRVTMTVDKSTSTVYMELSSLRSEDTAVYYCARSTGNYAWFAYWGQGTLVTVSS VL: DIVMTQSPDSLAVSLGERATINCKTSQDVSPSLAWYQQKPGQPPKLLIYSGSYRYTGVPDRFSGSGSGTDFTLTISSLQAEDVAVYYCQQHYSIPLTFGGGTKVEIK", "observed.measurement": 1.36}
{"binder": "anti-GPNMB antibody GPN-96 (antibody, V domains shown) VH: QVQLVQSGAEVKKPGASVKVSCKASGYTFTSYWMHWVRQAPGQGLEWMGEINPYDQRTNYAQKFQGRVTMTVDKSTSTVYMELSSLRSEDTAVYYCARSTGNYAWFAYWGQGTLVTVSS VL: DIVMTQSPDSLAVSLGERATINCKASQDVSPSLAWYQQKPGQPPKLLIYRASYRYTGVPDRFSGSGSGTDFTLTISSLQAEDVAVYYCQQHYSIPLTFGGGTKVEIK", "observed.measurement": 1.31}
{"binder": "anti-GPNMB antibody GPN-82 (antibody, V domains shown) VH: QVQLQESGPGLVKPSETLSLTCTVSGISITTGNYRWSWIRQPPGKGLEWIGYIYYSGTIIYNPSLKSRVTITRDTSKNQFSLELSSVTAADTAVYYCARDLTHWYFDVWGQGTLVTVSS VL: DIVMTQSPDSLAVSLGERATINCKSSRSVDYYGIGFLNWYQQKPGQPPKLLIYATSTQGSGVPDRFSGSGSGTDFTLTISSLQAEDVAVYYCQQQKEVPPTFGGGTKVEIK", "observed.measurement": 1.54}
